Provenance of the data: the supplement of paper PMC9233669

Tested on: biotinyl-Met-oxazolone
Test: self-aminoacylation, catalytic enhancement (BMO) (fold over background); higher = more active; k-Seq, kA / k0A0; sequences stand for … in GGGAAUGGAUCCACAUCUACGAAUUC…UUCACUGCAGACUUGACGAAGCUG
Variants at the floor of the assay were thinned out.
Could you label it Fulfilled if measured self-aminoacylation is 2 or higher, and Not fulfilled otherwise?

Q: Form field: self-aminoacylation at least 2? Entry: AAGAUUGCUAAUAGUCGCAAU [Fam3.1 aminoacylation ribozyme variant]
A: Not fulfilled

Q: Form field: self-aminoacylation at least 2? Entry: GUACUUCAAACAAUCGGUCUC [Fam1A.1 aminoacylation ribozyme variant]
A: Not fulfilled

Q: Form field: self-aminoacylation at least 2? Entry: AUGUUUUCUAAUAGUCGCAAG [Fam3.1 aminoacylation ribozyme variant]
A: Not fulfilled

Q: Form field: self-aminoacylation at least 2? Entry: GUUCACCUAGGUCAUCGCGUG [Fam2.2 aminoacylation ribozyme variant]
A: Fulfilled

Q: Form field: self-aminoacylation at least 2? Entry: CUACCUCAAACAAUCAGUCUG [Fam1A.1 aminoacylation ribozyme variant]
A: Not fulfilled

Q: Form field: self-aminoacylation at least 2? Entry: GUACUUCAAACAAUUGGUCUG [Fam1A.1 aminoacylation ribozyme variant]
A: Not fulfilled

Q: Form field: self-aminoacylation at least 2? Entry: AUUCACCUCGGUCAUCGGUUG [Fam2.2 aminoacylation ribozyme variant]
A: Not fulfilled

Q: Form field: self-aminoacylation at least 2? Entry: CCACACUUCAAGCCAUUGGUC [Fam1B.1 aminoacylation ribozyme variant]
A: Not fulfilled

Q: Form field: self-aminoacylation at least 2? Entry: CUAUUUCAAACAAUCGGACUG [Fam1A.1 aminoacylation ribozyme variant]
A: Not fulfilled

Q: Form field: self-aminoacylation at least 2? Entry: AUUCACCUAGUUCAUCGGGUG [Fam2.2 aminoacylation ribozyme variant]
A: Fulfilled

Q: Form field: self-aminoacylation at least 2? Entry: AUUACCCAGGUCUUCGAGUGA [Fam2.1 aminoacylation ribozyme variant]
A: Fulfilled

Q: Form field: self-aminoacylation at least 2? Entry: AUAACCCUGGUGAUCGAGUGA [Fam2.1 aminoacylation ribozyme variant]
A: Fulfilled

Q: Form field: self-aminoacylation at least 2? Entry: AUACACCUAGGUCAUCGGUUG [Fam2.2 aminoacylation ribozyme variant]
A: Not fulfilled

Q: Form field: self-aminoacylation at least 2? Entry: AAGCUUGCUGAUAGUCGCAAG [Fam3.1 aminoacylation ribozyme variant]
A: Fulfilled

Q: Form field: self-aminoacylation at least 2? Entry: AUUAUCCUGAUCAUCGAGUGA [Fam2.1 aminoacylation ribozyme variant]
A: Fulfilled

Q: Form field: self-aminoacylation at least 2? Entry: AUUACCCUGGGCAUCCAGUGA [Fam2.1 aminoacylation ribozyme variant]
A: Fulfilled

Q: Form field: self-aminoacylation at least 2? Entry: AUGACCCGGGUCAUCGAGUGA [Fam2.1 aminoacylation ribozyme variant]
A: Fulfilled

Q: Form field: self-aminoacylation at least 2? Entry: AUUCACCUAUGUCAUCGGGUG [Fam2.2 aminoacylation ribozyme variant]
A: Fulfilled

---

Test system: biotinyl-Trp-oxazolone
Test: self-aminoacylation, catalytic enhancement (BWO) (fold over background); higher = more active; k-Seq, kA / k0A0; sequences stand for … in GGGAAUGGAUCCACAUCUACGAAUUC…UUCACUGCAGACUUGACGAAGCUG
Fewer inactive variants are shown than the library holds.
Could you label it 1.0 if measured self-aminoacylation is 6 or higher, and 0.0 otherwise?

Q: Form field: self-aminoacylation at least 6? Entry: CUACUUCUAACAAUCGGUCUC [Fam1A.1 aminoacylation ribozyme variant]
A: 0.0

Q: Form field: self-aminoacylation at least 6? Entry: CUACUUCCAACAAUCGAUCUG [Fam1A.1 aminoacylation ribozyme variant]
A: 0.0

Q: Form field: self-aminoacylation at least 6? Entry: AUUACCCUGGACAUCUAGUGA [Fam2.1 aminoacylation ribozyme variant]
A: 0.0

Q: Form field: self-aminoacylation at least 6? Entry: CUACUUCGAACAAUCCGUCUG [Fam1A.1 aminoacylation ribozyme variant]
A: 0.0

Q: Form field: self-aminoacylation at least 6? Entry: AUUACCCUAGGCAUCGAGUGA [Fam2.1 aminoacylation ribozyme variant]
A: 1.0

Q: Form field: self-aminoacylation at least 6? Entry: CCACUUCAAACAAUCGGCCUG [Fam1A.1 aminoacylation ribozyme variant]
A: 1.0

Q: Form field: self-aminoacylation at least 6? Entry: AUUCACAUAGGUGAUCGGGUG [Fam2.2 aminoacylation ribozyme variant]
A: 0.0

Q: Form field: self-aminoacylation at least 6? Entry: AAGUUUGCUAAUAGUGGCAAA [Fam3.1 aminoacylation ribozyme variant]
A: 0.0

Q: Form field: self-aminoacylation at least 6? Entry: AUUCCCCUAGAUCAUCGGGUG [Fam2.2 aminoacylation ribozyme variant]
A: 1.0

---

Test system: biotinyl-Trp-oxazolone
Test: self-aminoacylation, catalytic enhancement (BWO) (fold over background); higher = more active; k-Seq, kA / k0A0; sequences stand for … in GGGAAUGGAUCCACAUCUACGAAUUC…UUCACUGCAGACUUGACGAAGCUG
Fewer inactive variants are shown than the library holds.
Kindly state self-aminoacylation for each of the entries shown.
Lab note: write the figure by itself, no unit.

Q: Return reported self-aminoacylation. Input sequence: AUUCACCUCGGGCAUCGGGUG [Fam2.2 aminoacylation ribozyme variant]
A: 5.56

Q: Return reported self-aminoacylation. Input sequence: AUUCAAUUAGGUCAUCGGGUG [Fam2.2 aminoacylation ribozyme variant]
A: 5.33

Q: Return reported self-aminoacylation. Input sequence: AUUAGCCUGGUCAUGGAGUGA [Fam2.1 aminoacylation ribozyme variant]
A: 4.92

Q: Return reported self-aminoacylation. Input sequence: AAAUGUGCUAAUAGUCGCAAG [Fam3.1 aminoacylation ribozyme variant]
A: 1.48

Q: Return reported self-aminoacylation. Input sequence: GUUCACCUAGGUCAUCGCGUG [Fam2.2 aminoacylation ribozyme variant]
A: 10.6

Q: Return reported self-aminoacylation. Input sequence: AUUCACAUGGGUCAUCGGGUG [Fam2.2 aminoacylation ribozyme variant]
A: 8.84

Q: Return reported self-aminoacylation. Input sequence: GUUACCCUGGUCAUCGAGGGA [Fam2.1 aminoacylation ribozyme variant]
A: 5.33

Q: Return reported self-aminoacylation. Input sequence: AAGCUUGCGAAUAGUCGCAAG [Fam3.1 aminoacylation ribozyme variant]
A: 2.32

Q: Return reported self-aminoacylation. Input sequence: AAGUUUGCUCAUAGUCCCAAG [Fam3.1 aminoacylation ribozyme variant]
A: 0.793

Q: Return reported self-aminoacylation. Input sequence: CCGCCCUUCAAGCAAUCGGUC [Fam1B.1 aminoacylation ribozyme variant]
A: 29.9

Q: Return reported self-aminoacylation. Input sequence: AUUGCCCUGGUCAUCCAGUGA [Fam2.1 aminoacylation ribozyme variant]
A: 7.66

Q: Return reported self-aminoacylation. Input sequence: AUUCAACAAGGUCAUCGGGUG [Fam2.2 aminoacylation ribozyme variant]
A: 5.71

Q: Return reported self-aminoacylation. Input sequence: CUAAACUUCAAGCAAUCGGUC [Fam1B.1 aminoacylation ribozyme variant]
A: 15.1

Q: Return reported self-aminoacylation. Input sequence: CUACUUCGAACAUUCGGUCUG [Fam1A.1 aminoacylation ribozyme variant]
A: 0.84

Q: Return reported self-aminoacylation. Input sequence: AUUCACCUAGGACAACGGGUG [Fam2.2 aminoacylation ribozyme variant]
A: 2.92

Q: Return reported self-aminoacylation. Input sequence: AAAUUUGUUAAUAGUCGCAAG [Fam3.1 aminoacylation ribozyme variant]
A: 1.76

Q: Return reported self-aminoacylation. Input sequence: CCCCACUUCAGGCAAUCGGUC [Fam1B.1 aminoacylation ribozyme variant]
A: 5.21

Q: Return reported self-aminoacylation. Input sequence: AUGUUUGCUAAUAGUCGCCAG [Fam3.1 aminoacylation ribozyme variant]
A: 1.76

Q: Return reported self-aminoacylation. Input sequence: AAGUUUGCUAAGAUUCGCAAG [Fam3.1 aminoacylation ribozyme variant]
A: 1.04

Q: Return reported self-aminoacylation. Input sequence: AAGUUUGCUAAUACUCGCUAG [Fam3.1 aminoacylation ribozyme variant]
A: 0.445

Q: Return reported self-aminoacylation. Input sequence: AUUCACCUAGGUCUCCGGGUG [Fam2.2 aminoacylation ribozyme variant]
A: 8.48

Q: Return reported self-aminoacylation. Input sequence: AUUACCCUGGUCAACGAGUCA [Fam2.1 aminoacylation ribozyme variant]
A: 0.482

Q: Return reported self-aminoacylation. Input sequence: CCACACUUUAAGUAAUCGGUC [Fam1B.1 aminoacylation ribozyme variant]
A: 0.677

Q: Return reported self-aminoacylation. Input sequence: CCACACUUCAAGCUCUCGGUC [Fam1B.1 aminoacylation ribozyme variant]
A: 1.1

Q: Return reported self-aminoacylation. Input sequence: CCACACUUUAAGCAAUCGUUC [Fam1B.1 aminoacylation ribozyme variant]
A: 0.575

Q: Return reported self-aminoacylation. Input sequence: AUUAACCUAGGUCAUAGGGUG [Fam2.2 aminoacylation ribozyme variant]
A: 2.08

Q: Return reported self-aminoacylation. Input sequence: AAGUUUGCUAAUAGUCGCCAG [Fam3.1 aminoacylation ribozyme variant]
A: 1.39

Q: Return reported self-aminoacylation. Input sequence: ACUACCCUUGUCAUCGAGUGA [Fam2.1 aminoacylation ribozyme variant]
A: 6.54

Q: Return reported self-aminoacylation. Input sequence: AAGUUUGGUAAUAGUCACAAG [Fam3.1 aminoacylation ribozyme variant]
A: 0.739

Q: Return reported self-aminoacylation. Input sequence: AUUAACCUCGGUCAUCGGGUG [Fam2.2 aminoacylation ribozyme variant]
A: 3.74

Q: Return reported self-aminoacylation. Input sequence: CUACGUCAAACAAUCCGUCUG [Fam1A.1 aminoacylation ribozyme variant]
A: 1.18

Q: Return reported self-aminoacylation. Input sequence: CCAGACUUCAAGGAAUCGGUC [Fam1B.1 aminoacylation ribozyme variant]
A: 5.9

Q: Return reported self-aminoacylation. Input sequence: CCACAGUUCAAGCAAUCGGGC [Fam1B.1 aminoacylation ribozyme variant]
A: 3.13

Q: Return reported self-aminoacylation. Input sequence: CUACUUCAAACAGUCGGUCUU [Fam1A.1 aminoacylation ribozyme variant]
A: 0.563

Q: Return reported self-aminoacylation. Input sequence: AAGGUGGCUAAUAGUCGCAAG [Fam3.1 aminoacylation ribozyme variant]
A: 1.95
